The measurements presented in this section are drawn from patent US10233191B2.

Each entry below carries its recorded IC50.
# Target or test system: NaV 1.7 (Homo sapiens, UniProt Q15858)
# Sequence (Q15858 whole entry): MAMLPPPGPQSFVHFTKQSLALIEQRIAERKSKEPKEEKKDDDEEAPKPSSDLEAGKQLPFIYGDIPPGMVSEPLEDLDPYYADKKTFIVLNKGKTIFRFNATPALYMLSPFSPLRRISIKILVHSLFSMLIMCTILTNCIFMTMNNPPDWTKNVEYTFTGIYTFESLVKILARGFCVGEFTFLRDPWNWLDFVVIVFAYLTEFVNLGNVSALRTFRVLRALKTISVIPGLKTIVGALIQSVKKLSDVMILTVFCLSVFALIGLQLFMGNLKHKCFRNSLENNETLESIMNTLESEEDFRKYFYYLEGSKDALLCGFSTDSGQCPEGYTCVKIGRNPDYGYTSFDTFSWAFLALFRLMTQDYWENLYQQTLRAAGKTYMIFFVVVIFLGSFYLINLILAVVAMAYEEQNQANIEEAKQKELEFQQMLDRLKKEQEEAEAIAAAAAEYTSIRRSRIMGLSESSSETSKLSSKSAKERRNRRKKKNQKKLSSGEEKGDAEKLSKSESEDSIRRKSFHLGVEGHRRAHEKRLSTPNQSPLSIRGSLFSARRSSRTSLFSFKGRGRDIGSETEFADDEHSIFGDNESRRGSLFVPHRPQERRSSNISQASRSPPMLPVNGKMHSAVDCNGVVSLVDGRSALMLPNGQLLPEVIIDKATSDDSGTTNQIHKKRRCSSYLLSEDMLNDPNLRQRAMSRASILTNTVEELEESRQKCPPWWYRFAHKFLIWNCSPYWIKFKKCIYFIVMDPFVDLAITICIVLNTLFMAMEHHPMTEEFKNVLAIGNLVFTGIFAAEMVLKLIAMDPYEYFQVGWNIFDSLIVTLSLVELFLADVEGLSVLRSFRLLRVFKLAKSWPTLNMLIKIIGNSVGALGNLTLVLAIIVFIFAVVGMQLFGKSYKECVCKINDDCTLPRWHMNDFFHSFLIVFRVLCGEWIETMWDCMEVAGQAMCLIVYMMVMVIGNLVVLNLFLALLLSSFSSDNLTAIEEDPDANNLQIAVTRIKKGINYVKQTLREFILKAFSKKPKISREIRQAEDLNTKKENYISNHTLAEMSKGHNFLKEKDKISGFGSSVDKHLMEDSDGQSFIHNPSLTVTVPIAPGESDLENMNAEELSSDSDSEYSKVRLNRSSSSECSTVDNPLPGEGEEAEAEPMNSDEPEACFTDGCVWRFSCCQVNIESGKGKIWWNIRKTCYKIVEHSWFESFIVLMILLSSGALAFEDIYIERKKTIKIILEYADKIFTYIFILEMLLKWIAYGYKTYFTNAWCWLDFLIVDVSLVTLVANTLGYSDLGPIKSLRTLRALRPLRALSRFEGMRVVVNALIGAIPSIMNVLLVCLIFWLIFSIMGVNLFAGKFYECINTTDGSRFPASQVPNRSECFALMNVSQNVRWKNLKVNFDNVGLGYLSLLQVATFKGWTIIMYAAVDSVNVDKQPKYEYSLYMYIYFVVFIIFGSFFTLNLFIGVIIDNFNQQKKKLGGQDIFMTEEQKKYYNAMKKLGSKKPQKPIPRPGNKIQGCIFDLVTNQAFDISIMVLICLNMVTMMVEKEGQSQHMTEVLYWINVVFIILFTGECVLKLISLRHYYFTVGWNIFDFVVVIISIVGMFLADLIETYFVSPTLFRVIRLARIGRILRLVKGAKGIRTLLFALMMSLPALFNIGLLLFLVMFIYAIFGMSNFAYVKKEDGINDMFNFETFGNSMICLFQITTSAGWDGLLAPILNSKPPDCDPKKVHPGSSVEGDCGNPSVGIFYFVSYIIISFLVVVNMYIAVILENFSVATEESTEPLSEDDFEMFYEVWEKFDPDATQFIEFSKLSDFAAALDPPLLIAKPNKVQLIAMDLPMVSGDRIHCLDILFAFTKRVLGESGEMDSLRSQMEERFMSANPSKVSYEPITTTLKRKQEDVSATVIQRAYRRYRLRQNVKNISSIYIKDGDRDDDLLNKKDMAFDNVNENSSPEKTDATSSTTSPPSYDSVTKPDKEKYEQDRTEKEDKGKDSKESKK
# Protocol summary: E-VIPR optical membrane potential assay with electrical stimulation
# Condition description: active against one or more sodium channels; assay/subtype not specified in Table 4; read-out: IC50 Binned Activity Data

Compound	Experimental readout	Reading
COc1cc(OC(C)C)ccc1C(=O)N1CCC2(c3ccccc3)CC2C1 (stereo not drawn)	IC50	≤ 2000 nM
COc1cc(C(=O)N2CC[C@]3(c4cscn4)OCOC3C2)ccc1OCCOC(F)(F)F (stereo partly drawn)	IC50	> 5000 nM
CC(C)(C)OCCOc1ccc(C(=O)N2CC[C@]3(c4ccccn4)OCOC3C2)cc1Cl (stereo partly drawn)	IC50	≤ 2000 nM
COc1cc(C(=O)N2CCC3(c4ccccn4)OCCC3C2)ccc1OCCOC(F)(F)F (stereo not drawn)	IC50	≤ 2000 nM
COc1nc(C(=O)N2CC[C@]3(c4cccc(F)c4)OCOC3C2)ccc1OC(C)C(F)(F)F (stereo partly drawn)	IC50	≤ 2000 nM

Now look at this entry.
Ask | // IC50 lookup, key: COc1nc(C(=O)N2CC[C@]3(c4cccc(F)c4)OCOC3C2)ccc1OCC(F)(F)C1CC1 (stereo partly drawn)
Reply | ≤ 2000 nM

====

# Target or test system: NaV 1.7 (Homo sapiens, UniProt Q15858)
# Protocol summary: E-VIPR optical membrane potential assay with electrical stimulation
# Condition description: active against one or more sodium channels; assay/subtype not specified in Table 4; read-out: IC50 Binned Activity Data
Each entry below carries its recorded IC50.

Below are worked cases with known answers.
Compound	IC50
[2H]C1([2H])OC2CN(C(=O)c3ccc(OCC4CC(F)(F)C4)c(OC)n3)CC[C@]2(c2cc(F)cc(F)c2)O1 (stereo partly shown) [Compound 280]	≤ 2000 nM
CC(C)(O)COc1ccc(C(=O)N2CC[C@]3(c4nccs4)OCOC3C2)cc1Cl (stereo partly shown) [Compound 22]	2000 to 5000 nM
COc1cc(C(=O)N2CCC3(c4ccccc4)CC3C2)ccc1COCC(F)(F)F (stereo not shown) [Compound 83]	≤ 2000 nM

Now look at this entry.
Ask | // IC50 lookup, key: Cc1cc(C(=O)N2CC[C@@]3(c4ccccc4)C[C@@H]3C2)ccc1OCC(C)(C)O [Compound 114]
Reply | ≤ 2000 nM

====

# Target or test system: NaV 1.7 (Homo sapiens, UniProt Q15858)
# Protocol summary: E-VIPR optical membrane potential assay with electrical stimulation
# Condition description: active against one or more sodium channels; assay/subtype not specified in Table 4; read-out: IC50 Binned Activity Data
Each entry below carries its recorded IC50.

Ask | API: value(readout= IC50, system= NaV 1.7 (Homo sapiens, UniProt Q15858), query= CC(F)(F)COc1ccc(C(=O)N2CC[C@]3(c4ccccn4)OCOC3C2)cc1C(F)(F)F (stereo partly shown) )
Reply | 2000 to 5000 nM

Ask | API: value(readout= IC50, system= NaV 1.7 (Homo sapiens, UniProt Q15858), query= COc1cc(C(=O)N2CC[C@]3(c4nccs4)OCOC3C2)ccc1OCCOC(F)(F)F (stereo partly shown) )
Reply | ≤ 2000 nM

Ask | API: value(readout= IC50, system= NaV 1.7 (Homo sapiens, UniProt Q15858), query= O=C(c1ccc(OCCOC(F)(F)F)c(F)c1)N1CC[C@@]2(c3cccc(F)c3)OCOC2C1 (stereo partly shown) )
Reply | 2000 to 5000 nM

Ask | API: value(readout= IC50, system= NaV 1.7 (Homo sapiens, UniProt Q15858), query= Cc1cc(C(=O)N2CC[C@]3(c4ccccc4)OCOC3C2)ccc1OC(C)C (stereo partly shown) )
Reply | ≤ 2000 nM
